assay: BSK_SAg_SRB: Viability Assessment in the BioMAP Diversity Plus: SAg Assay (AID 2283096); settings: primary human HUVEC with PBMC;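 also: cells read one day after compound addition; hits may be either gain or loss of signal compared with DMSO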
Active and inactive are the calls of the source. The calls were made as follows: active = hit-call score of the fitted dose curve at least 0.9, where 1 is the maximum; inactive = score below 0.9.
Pick from active, inactive when you respond.

[ask] Record lookup: outcome of this test for `CCOC(=O)CCCCCCCCC(=O)OCC` ?
[reply] inactive

[ask] Record lookup: outcome of this test for `COC(=O)c1ccc(C(=O)OC)cc1` ?
[reply] inactive

[ask] Record lookup: outcome of this test for `c1ccc(Sc2ccccc2)cc1` ?
[reply] active

[ask] Record lookup: outcome of this test for CCCCCCCC1CCCC1=O (stereo unspecified) ?
[reply] inactive

[ask] Record lookup: outcome of this test for `C=C(C)C(N)=O` ?
[reply] inactive

[ask] Record lookup: outcome of this test for `CCCO[Si](OCCC)(OCCC)OCCC` ?
[reply] inactive

New cases:
[ask] Record lookup: outcome of this test for `CC(C)(CO)CO` ?
[reply] inactive

[ask] Record lookup: outcome of this test for `C=C(F)C(=O)OC(C(F)(F)F)C(F)(F)F` ?
[reply] inactive

[ask] Record lookup: outcome of this test for `COc1ccccc1NC(=O)CC(C)=O` ?
[reply] inactive

[ask] Record lookup: outcome of this test for `CCn1cc(C(=O)O)c(=O)c2ccc(C)nc21` ?
[reply] inactive

[ask] Record lookup: outcome of this test for `O=C1OC2(c3ccc(O)cc3Oc3cc(O)ccc32)c2ccccc21` ?
[reply] inactive
